Each record here notes measured inhibition.
- Tested target: Dual specificity mitogen-activated protein kinase kinase 1 (Homo sapiens) (UniProt Q02750);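 also: reported value is a mean percent inhibition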
- Sequence (Q02750 whole entry): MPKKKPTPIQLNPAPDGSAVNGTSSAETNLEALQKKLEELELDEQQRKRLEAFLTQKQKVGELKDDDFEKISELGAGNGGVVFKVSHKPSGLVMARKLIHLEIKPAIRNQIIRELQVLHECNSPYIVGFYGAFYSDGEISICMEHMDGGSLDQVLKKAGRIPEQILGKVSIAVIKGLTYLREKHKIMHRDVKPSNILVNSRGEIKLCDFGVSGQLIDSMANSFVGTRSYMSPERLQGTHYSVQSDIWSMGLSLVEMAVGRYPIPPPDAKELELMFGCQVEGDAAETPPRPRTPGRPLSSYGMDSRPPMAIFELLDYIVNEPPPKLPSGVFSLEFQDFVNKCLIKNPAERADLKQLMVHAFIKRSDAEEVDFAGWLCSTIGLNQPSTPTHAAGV
- Condition set: at 0.1 µM
Reported endpoint: inhibition (%)

[[record]]
smiles_string = "NC(=O)c1cccc(Nc2nccc(Nc3cccc(F)c3)n2)c1"
experimental_result = -0.23

[[record]]
smiles_string = "CC(C)c1ccc(Nc2nccc(-c3cnn4ncccc34)n2)cc1"
experimental_result = 2.79

[[record]]
smiles_string = "CC(C)c1ccc2c(c1)NC(=O)/C2=N/Nc1ccc(S(N)(=O)=O)cc1"
experimental_result = 0.83

[[record]]
smiles_string = "O=C(Nc1ccc(Oc2ccc3[nH]c(NC(=O)c4ccco4)nc3c2)cc1)Nc1cc(C(F)(F)F)ccc1F"
experimental_result = 0.55

[[record]]
smiles_string = "Cc1cc(-c2ccccn2)cc(C)c1/C=C/c1cncc(-c2nn[nH]n2)c1"
experimental_result = 3.04

[[record]]
smiles_string = "CCS(=O)(=O)c1ccc(OC)c(Nc2nccc(N(C)c3ccc4c(C)n[nH]c4c3)n2)c1"
experimental_result = 4.63

[[record]]
smiles_string = "COc1cccc(-n2nc(C)c3c(N/N=C(\\C)c4ccncc4)ncnc32)c1"
experimental_result = -0.14

[[record]]
smiles_string = "CCn1c(-c2nonc2N)nc2ccc(F)cc21"
experimental_result = 9.94

[[record]]
smiles_string = "CN(C)C(=O)O[C@@H]1CN[C@@H](C#Cc2cc3ncnc(Nc4ccc(OCc5cccc(F)c5)c(Cl)c4)c3s2)C1"
experimental_result = -0.21

[[record]]
smiles_string = "Nc1nccc(-c2c(-c3ccc(F)cc3)ncn2CCCN2CCOCC2)n1"
experimental_result = 5.23

[[record]]
smiles_string = "NS(=O)(=O)c1ccc(NC=C2C(=O)Nc3ccc4ncsc4c32)cc1"
experimental_result = 17.5

[[record]]
smiles_string = "NS(=O)(=O)c1ccc(N/N=C2\\C(=O)Nc3ccc(Cl)cc32)cc1"
experimental_result = 5.27

[[record]]
smiles_string = "NS(=O)(=O)c1cccc(-c2cc3ccncc3cc2OCc2ccccc2)c1"
experimental_result = 5.91

[[record]]
smiles_string = "NS(=O)(=O)c1ccc(-c2cc3ccncc3cc2OCc2ccccc2)cc1"
experimental_result = 4.49

